What cAMP Rel EC50 (in the presence of 1% HSA) was measured for each of the following?
Target: T1, human GIP receptor (human) (UniProt P48546)
T1 sequence (looked up): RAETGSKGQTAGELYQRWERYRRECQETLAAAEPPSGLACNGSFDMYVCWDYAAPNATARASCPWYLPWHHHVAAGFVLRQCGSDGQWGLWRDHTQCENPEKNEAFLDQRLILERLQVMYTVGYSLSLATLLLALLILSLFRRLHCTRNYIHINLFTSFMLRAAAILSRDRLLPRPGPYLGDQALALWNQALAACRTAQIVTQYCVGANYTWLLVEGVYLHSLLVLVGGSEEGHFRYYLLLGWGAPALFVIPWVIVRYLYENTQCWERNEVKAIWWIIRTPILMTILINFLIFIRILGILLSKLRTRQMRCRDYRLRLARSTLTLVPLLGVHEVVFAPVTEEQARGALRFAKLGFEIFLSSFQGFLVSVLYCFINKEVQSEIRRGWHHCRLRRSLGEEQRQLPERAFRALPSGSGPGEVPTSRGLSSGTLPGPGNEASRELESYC
Assay: cell-based or functional assay
One number for each entry, in nM.

binder: YXQGTXTSDXSIXLDKKAQXXFIEYLSEGGPSSGEPPPSGSEE (non-natural residues; diacid-(γ-Glu)2 acylated Lys; C-terminal amide; synthetic construct; SITE 2: note = 2-Aminoisobutyric Acid; SITE 6: note = alpha-methyl-2-fluoro-L-phenylalanine; SITE 10: note = 3-(4-Pyridyl)-L-alanine; SITE 13: note = alpha-methyl-leucine; SITE 17: note = Lysine is chemically modified through conjugation of the epsilon-amino group of the Lysine) [Example 637]
readout value: 7.23

Parameters: items (list). Returns: cAMP Rel EC50 (in the presence of 1% HSA) for each item.
1. YXQGTXTSDXSIXLDXKAQXEFIEXLIEGGPSSGAPPPSGS (Aib, αMeF(2F), 4Pal, αMeL, Orn, Me4Pal, αMeY; lipidated Lys; amide; synthetic construct; SITE 2: note = 2-Aminoisobutyric Acid; SITE 6: note = alpha-methyl-2-fluoro-L-phenylalanine; SITE 10: note = 3-(4-Pyridyl)-L-alanine; SITE 13: note = alpha-methyl-leucine; SITE 16: note = L-ornithine; SITE 17: note = Lysine is chemically modified through conjugation of the epsil) [Example 640]
2. YXQGTXTSDXSIXLDKKAQXAFIEYLEEGGPSSGEPPPSGTGE (non-natural residues, C18 diacid acylation, C-terminal amide; synthetic construct; SITE 2: note = 2-Aminoisobutyric Acid; SITE 6: note = alpha-methyl-2-fluoro-L-phenylalanine; SITE 10: note = 3-(4-Pyridyl)-L-alanine; SITE 13: note = alpha-methyl-leucine; SITE 17: note = Lysine is chemically modified through conjugation of the epsilon-amino group of the Lysine) [Example 624]
3. YXQGTFTSDFSXXLDKKAQXAFIEWLLEGGHSSGAPPPGGE (Aib, Orn, alpha-methyl-Leu, lipidated Lys, C-terminal amide; synthetic construct; SITE 2: note = 2-Aminoisobutyric Acid; SITE 12: note = L-ornithine; SITE 13: note = alpha-methyl-leucine; SITE 17: note = Lysine is chemically modified through conjugation of the epsilon-amino group of the Lysine side chain with (2-[2-(2-Amino-ethoxy)-ethoxy]-acetyl)-(gamma-Glu)) [Example 273]
4. YXQGTFTSDXXQXLDXKAQXQFIQXLIEGGPSSGEPPPSGGGE (not fully specified; non-natural residues; lysine acylated γGlu-C18 diacid; C-terminal amide; synthetic construct; SITE 2: note = 2-Aminoisobutyric Acid; SITE 10: note = 3-(4-Pyridyl)-L-alanine; SITE 11: note = alpha-methyl-L-serine; SITE 13: note = alpha-methyl-leucine; SITE 16: note = L-ornithine; SITE 17: note = Lysine is chemically modified through conjugation of the epsilon-amino group) [Example 1188]
5. YXQGTXTSDXXIXLDXKAQXEFIEXLIEGGPSSXAPPPEGE (Non-natural residues; K AEEA-γGlu-C18 diacid; amide; position 35 uncertain; synthetic construct; SITE 2: note = 2-Aminoisobutyric Acid; SITE 6: note = alpha-methyl-2-fluoro-L-phenylalanine; SITE 10: note = 3-(4-Pyridyl)-L-alanine; SITE 11: note = alpha-methyl-L-serine; SITE 13: note = alpha-methyl-leucine; SITE 16: note = L-ornithine; SITE 17: note = Lysine is chemically mo) [Example 1192]

1: 0.591; 2: 1.17; 3: 21.8; 4: 7.02; 5: 1.06

Dear colleague, could you please provide cAMP Rel EC50 (in the presence of 1% HSA) for the binders listed below?
1. YXQGTXTSDXXIXLDXKAQXEFIEXLIEGGPSSGAPPPSGGGE (non-natural residues, acylated Lys (AEEA-γGlu-C18 diacid), C-terminal amide; synthetic construct; SITE 2: note = 2-Aminoisobutyric Acid; SITE 6: note = alpha-methyl-L-phenylalanine; SITE 10: note = 3-(4-Pyridyl)-L-alanine; SITE 11: note = alpha-methyl-L-serine; SITE 13: note = alpha-methyl-leucine; SITE 16: note = L-ornithine; SITE 17: note = Lysine is chemically modified th) [Example 1168]
2. YXQGTFTSDFSKXLDKKAQXAFIEYLLAGGPSSGAPPPSSG (synthetic construct; SITE 2: note = 2-Aminoisobutyric Acid; SITE 13: note = alpha-methyl-leucine; SITE 17: note = Lysine is chemically modified through conjugation of the epsilon-amino group of the Lysine side chain with (2-[2-(2-Amino-ethoxy)-ethoxy]-acetyl)-(gamma-Glu)-CO-(CH2) 18-CO2H; SITE 20: n) [Example 13]
3. YXQGTXTSDXSILLDKKAQXAFIEYLEEGGPSSGAPPPSGAGE (non-natural residues, acylated Lys, C-terminal amide; synthetic construct; SITE 2: note = 2-Aminoisobutyric Acid; SITE 6: note = alpha-methyl-2-fluoro-L-phenylalanine; SITE 10: note = 3-(4-Pyridyl)-L-alanine; SITE 17: note = Lysine is chemically modified through conjugation of the epsilon-amino group of the Lysine side chain with (gamma-Glu)2-CO-(CH2)1) [Example 620]
4. YXQGTFTSDXSKXLDKKAQXAFIEYLIEAGESSGAPPPSGS (Aib, 4Pal, αMeL, D-Ala; K acylated AEEA-γGlu-C18 diacid; amide; synthetic construct; SITE 2: note = 2-Aminoisobutyric Acid; SITE 10: note = 3-(4-Pyridyl)-L-alanine; SITE 13: note = alpha-methyl-leucine; SITE 17: note = Lysine is chemically modified through conjugation of the epsilon-amino group of the Lysine side chain with (2-[2-(2-Amino-ethoxy)-ethoxy]-acetyl)) [Example 283]

0.999
29.2
5.96
47.2

Please go through the list and note cAMP Rel EC50 (in the presence of 1% HSA) for each binder.
1. YXQGTXTSDXSILLDKKAQXAFIEYLEEGGPSSGAPPPSGEGE (non-natural residues; Lys acylated (γGlu)2-C18 diacid; C-terminal amide; synthetic construct; SITE 2: note = 2-Aminoisobutyric Acid; SITE 6: note = alpha-methyl-2-fluoro-L-phenylalanine; SITE 10: note = 3-(4-Pyridyl)-L-alanine; SITE 17: note = Lysine is chemically modified through conjugation of the epsilon-amino group of the Lysine side chain with (gamma-Glu)2-CO-(CH2)1) [Example 621]
2. YXQGTXTSDXXIXLDXKAQXEFIEXLVEGGPSSGAPPPEGE (not fully specified; non-natural residues; AEEA-γGlu-C18 diacid acyl; C-terminal amide; synthetic construct; SITE 2: note = 2-Aminoisobutyric Acid; SITE 6: note = alpha-methyl-2-fluoro-L-phenylalanine …; SITE 10: note = 3-(4-Pyridyl)-L-alanine; SITE 11: note = alpha-methyl-L-serine; SITE 13: note = alpha-methyl-leucine; SITE 16: note = L-ornithine; SITE 17: note = Lysine is chemically mo) [Example 1158]

1: 7.31; 2: 1.42
